These data points were gathered from the supplement of paper PMC9732359.

experiment: protein stability index of a GFP-peptide fusion (yeast GPS) (PSI 1-4); higher = more stable; sorted into four equal gates, so the index is relative within each strain; settings: doa10∆
# protein stability index listing for each entry below
METRIC: protein stability index

INSERT INTO results (polymer_sequence, result_value) VALUES
  ('SCISISDIISMLQISDD [RRI2]', 1.82),
  ('DASPDSLEALIDLCHDF [YCS4]', 2.81),
  ('LHGNAKKAAEEAGVTDV [FAS2]', 3.42),
  ('KRPGKLSDYIPGPYPNE [CYT1]', 3.19),
  ('YGVSFFTIQSFVSSLSN [BRR2]', 1.47),
  ('SRNGDFPRTRFEAQIDS [RPN10]', 3.09),
  ('SAPAPAAAAPAPVAAAA [FAS2]', 3.24),
  ('KQRKNPRRIAWTVLFRK [RPL24A]', 3.03),
  ('PYSKNAVEQLAGCKIDN [YDL088C/ASM4]', 2.58),
  ('PSLRKLIESGIGTHHAG [BRR2]', 3.16),
  ('NDLRVSLNEKNALHTER [SMC1]', 3.11),
  ('IVLDEVRNKSYPVYTRL [DIS3]', 2.93),
  ('PKAMTDTDNECVAAWGV [HRT1]', 3.23),
  ('SGTSSDPDTKKVKESPA [YIL149C/MLP2]', 3.21),
  ('AHLWQKIHESIVFDICQ [PRP8]', 2.56),
  ('LHPYVPSSKPQEQVYPD [SRB8]', 2.81),
  ('PIVIIFRALGIIPDGEI [RPB2]', 1.92),
  ('VSECIILGQTMSIGTGS [RPO31]', 2.06);

====

# protein stability index listing for each entry below
experiment: protein stability index of a GFP-peptide fusion (yeast GPS) (PSI 1-4); higher = more stable; sorted into four equal gates, so the index is relative within each strain; settings: san1∆
METRIC: protein stability index

INSERT INTO measurements (polymer_sequence, result_value) VALUES
  ('IILSIDEHHESFELKEE [RRP6]', 3.08),
  ('GAFTIALAYAGTGNNSA [RPN2]', 1.99),
  ('TRSHEYGRKSFRNNKND [REC8]', 3.29),
  ('PTIRSNAVLGLGDMAVC [YCS4]', 1.67),
  ('KADIGKPGRMPFNFTVT [CDC53]', 2.73),
  ('RALRIETGNFSWASEGI [RPS8A]', 3.11),
  ('VRAEELNISGEFFRNKL [RPL16A]', 3.07),
  ('RSINNLIQEHDSRKNRE [BRN1]', 3.15),
  ('LIELLTQMDGFDQSTNV [RPT3]', 1.56),
  ('QGITRNVVNYLSINKNF [RPC17]', 1.23),
  ('RSKNLIFNGETLEDALR [GRR1]', 2.65),
  ('PWYNNPVSCIIQNDEEY [PRP8]', 2.43),
  ('NTSAIQETASPLSQDEL [YIL149C/MLP2]', 1.19),
  ('PDNSIFGDTKSESKQLG [SWI3]', 3.21),
  ('SFYDAIFFNIPLVAHLG [YJL039C/NUP192]', 2.02),
  ('HLSYCSNLTIYPIYELL [GRR1]', 3.17),
  ('GRNRGRPNRRGPRNTEE [RPS2]', 3.58),
  ('GRDKHALSLLYHLLNYD [SSN3]', 2.94),
  ('EVEVSTRDLFDLEKDRA [RPO31]', 3.28),
  ('SLTEKFSQTVADNNDLQ [ECM29]', 2.64),
  ('VEESGEHVILGNGELYM [SNU114]', 3.3),
  ('QLNEKLVGRLRKCETQK [YCS4]', 2.22),
  ('RCGRRSFHVQKKTCSSC [RPL37A]', 2.47);

====

assay: protein stability index of a GFP-peptide fusion (yeast GPS) (PSI 1-4); higher = more stable; sorted into four equal gates, so the index is relative within each strain; settings: doa10∆
# protein stability index listing for each entry below
METRIC: protein stability index

INSERT INTO measurements (polymer_sequence, result_value) VALUES
  ('SYQPMYQRPMQVQGQQQ [SSN3]', 1.46),
  ('RFKNSVKWYHFDHNDKK [PRE7]', 2.32),
  ('QNHNSKSTDNSAIRQVF [IRR1]', 2.61);

====

assay: protein stability index of a GFP-peptide fusion (yeast GPS) (PSI 1-4); higher = more stable; sorted into four equal gates, so the index is relative within each strain; conditions: pdr5∆
METRIC: protein stability index

INSERT INTO results (polymer_sequence, result_value) VALUES
  ('LGNTVSTQPSFAWSKPS [YGR119C/NUP57]', 2.84),
  ('GDYGSAKCNSLLQLKYF [POP5]', 2.24),
  ('QVLFQGLIYSFNEENGE [POP1]', 3.24),
  ('QHIYPSSTPGVANYSAM [GAL11]', 2.7),
  ('NLQIRQLFNWCLMRSLH [DSN1]', 1.19),
  ('NANQQFLPFNNSASNNG [SWI1]', 2.97),
  ('KTLTEEVTKSSHVENLE [YIL149C/MLP2]', 2.94),
  ('LKVRKGHIAKLMATEYQ [RPB2]', 2.33),
  ('YFLDVKCPGCLNITTVF [RPS27A]', 2.6),
  ('NYTDLIWFPEDFISPEL [MED1]', 2.61),
  ('VLEDCRHLPMYTEFIDS [ITC1]', 2.71);

====

test: protein stability index of a GFP-peptide fusion (yeast GPS) (PSI 1-4); higher = more stable; sorted into four equal gates, so the index is relative within each strain; settings: pdr5∆
Note to self: values exactly at 2 are yes (1). So protein stability index at or above 2 is yes (1), below is no (0).

INSERT INTO assay_data (polymer_sequence, label) VALUES
  ('QPTPRSASNTAKSTPNT [GAL11]', 'yes (1)'),
  ('EFLFESLKNDLPQFRSS [ECM29]', 'yes (1)'),
  ('RVHDQPLIWQLLQSSII [POP3]', 'no (0)'),
  ('NVTLVNGKRRMNPGPSV [RPS30A]', 'yes (1)'),
  ('QNIETRQLANLIPFIVK [NUT1]', 'no (0)'),
  ('ANVELTPSNIRSLCEVL [RPC34]', 'no (0)');

====

experiment: protein stability index of a GFP-peptide fusion (yeast GPS) (PSI 1-4); higher = more stable; sorted into four equal gates, so the index is relative within each strain; conditions: ubr1∆
# protein stability index listing for each entry below
METRIC: protein stability index

INSERT INTO results (polymer_sequence, result_value) VALUES
  ('KVSSAEYYAKKRAFTKK [RPL16A]', 3.36),
  ('NTEEVNRLEKEQSVKTQ [LIN1]', 1.74),
  ('EKLKQFSWISVVNDLVG [SIR3]', 1.55),
  ('NRTLYELADLPKLKRIG [GRR1]', 3.02),
  ('QQQQQQQQQQQQQGQIP [SNF5]', 2.83);

====

assay: protein stability index of a GFP-peptide fusion (yeast GPS) (PSI 1-4); higher = more stable; sorted into four equal gates, so the index is relative within each strain; details: ubr1∆
Consider the reported protein stability index of an entry and match it to a band in lower level: < 2; middle level: ≥ 2 and < 3; upper level: ≥ 3

INSERT INTO measurements (polymer_sequence, label) VALUES
  ('DLIETSFTCFAQFVSNK [NUT1]', 'middle level'),
  ('PVLKKKAAFLGSEVRLR [COR1]', 'upper level'),
  ('MDVDSVKTTLVSLTQLR [RPC82]', 'lower level'),
  ('PLQNNLPELWALLNFVL [SNF2]', 'middle level'),
  ('KPSFSFGVPNSSKNETS [YLR335W/NUP2]', 'lower level'),
  ('NSIWGSSLRKNASGNKR [ITC1]', 'lower level'),
  ('AEVNGGDDEATEIISTL [BRR2]', 'upper level'),
  ('VDFQNDLKDILEKVVPL [BRR2]', 'middle level'),
  ('ITASTLLYADSLTAEAM [CYT1]', 'middle level'),
  ('KTTNTTPSFSFGAKSDE [YJL041W/NSP1]', 'upper level'),
  ('KKDRATGDADEPELRVL [RPO21]', 'upper level'),
  ('DDDDDEDEEEEEEVTDQ [QCR6]', 'upper level'),
  ('DNMSEEQWLRQFEVSDD [SNF2]', 'upper level'),
  ('FFAAIRFVLSDDYSNLK [SMC3]', 'middle level'),
  ('LSDNAKTLHSQMMSKGI [RPC34]', 'upper level'),
  ('EMDEKSYEKNEDHVEDH [LIN1]', 'upper level'),
  ('TNGKPDMAILERYYELA [ARP7]', 'upper level'),
  ('IYHGNHDVGELFWKVKE [PRE2]', 'middle level'),
  ('LFYFDSSFRPCPLSQQF [BRR2]', 'middle level'),
  ('DRPGSKFHKREVVEAVT [RPL3]', 'middle level'),
  ('RQCFREKANDIGFHKYR [RPS29B]', 'middle level'),
  ('TEKEEDAELMADEEEEI [ISW2]', 'upper level'),
  ('RAFTKKVSSASAAASES [RPL16B]', 'lower level'),
  ('SKVVIDSIIDNIVKLCF [IRR1]', 'middle level'),
  ('WAVTLDTSRPDLEWQEL [DSN1]', 'upper level'),
  ('NSLLLDSTPEEVSCKLL [YML103C/NUP188]', 'middle level'),
  ('TGIFMAMHYSSNIELAF [COB]', 'lower level'),
  ('ESGSTPISISNAPTFNP [YAR002W/NUP60]', 'middle level'),
  ('LGNTVSTQPSFAWSKPS [YGR119C/NUP57]', 'middle level'),
  ('WDDHTKKPLSMALNKVL [CDC53]', 'lower level'),
  ('SYQPMYQRPMQVQGQQQ [SSN3]', 'lower level'),
  ('EVIFSFEGTPPFSLTYV [YMR129W/POM152]', 'middle level'),
  ('AAVVKTSSRQTVFLPMV [RPT5]', 'middle level'),
  ('FIVVPDLLKNAPLFKKN [SMD3]', 'lower level'),
  ('AFGGLNFGGGNNTTPSS [YJL041W/NSP1]', 'lower level'),
  ('FDEFMNVVIDEAVEIPV [SME1]', 'middle level'),
  ('PRSPGRSPTRRLELLQL [SMC4]', 'lower level'),
  ('AIRADPAFKPTEKKFTK [RPL5]', 'upper level'),
  ('NILLRERDSYKLLASTE [YIL149C/MLP2]', 'middle level'),
  ('TRIQYVDFACCTNLTNR [GRR1]', 'middle level'),
  ('YQELAYRATSLDPSLRA [YML031W/NDC1]', 'middle level'),
  ('VREYEQPDANKKKRSRT [ISW2]', 'upper level');
